Experiment: Oral bioavailability in Sprague-Dawley rat
Format: ADME, organism-based
Details: in vivo
Measured attribute: bioavailability (%)

In [3]: df
Out[3]:
                    smiles_text  measured_attribute  result_value
0  NC(N)=N/N=C/c1ccc(Cl)c(Cl)c1     bioavailability            43

###

Target: Neuropeptide FF receptor 2 (Homo sapiens, UniProt Q9Y5X5)
Sequence (Q9Y5X5 whole entry): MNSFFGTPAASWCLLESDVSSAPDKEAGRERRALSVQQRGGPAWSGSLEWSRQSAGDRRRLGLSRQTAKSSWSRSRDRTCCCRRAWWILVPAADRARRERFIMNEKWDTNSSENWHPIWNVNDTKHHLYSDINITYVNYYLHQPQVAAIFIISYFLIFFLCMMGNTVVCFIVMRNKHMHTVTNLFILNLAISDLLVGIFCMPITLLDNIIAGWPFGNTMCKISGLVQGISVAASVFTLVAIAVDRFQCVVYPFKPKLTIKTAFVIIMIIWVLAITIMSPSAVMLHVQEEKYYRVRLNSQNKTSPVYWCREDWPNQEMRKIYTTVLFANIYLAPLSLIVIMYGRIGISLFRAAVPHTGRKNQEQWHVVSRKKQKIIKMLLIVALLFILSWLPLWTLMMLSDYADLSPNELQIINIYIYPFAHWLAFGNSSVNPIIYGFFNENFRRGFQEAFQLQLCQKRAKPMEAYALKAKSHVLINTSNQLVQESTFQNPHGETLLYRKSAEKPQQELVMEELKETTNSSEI
Assay: Agonist activity at human NPFF2 receptor expressed in cells assessed as beta-galactosidase levels after 5 days
Measured attribute: EC50 (nM)

                               smiles_text                               system_name  result_value
0          C/C(=N\N=C(N)N)c1ccc(Cl)c(Cl)c1  Neuropeptide FF receptor 2 (Homo sapiens, UniProt Q9Y5X5)           501
1    C/C(=N\NC(=N)N)c1ccc(Cl)c(C(F)(F)F)c1  Neuropeptide FF receptor 2 (Homo sapiens, UniProt Q9Y5X5)           398
2             NC(N)=N/N=C/c1ccc(Cl)c(Cl)c1  Neuropeptide FF receptor 2 (Homo sapiens, UniProt Q9Y5X5)          1000
3   N=C(N)N/N=C/c1ccc(-c2ccccc2C(F)(F)F)s1  Neuropeptide FF receptor 2 (Homo sapiens, UniProt Q9Y5X5)           158
4          Cc1ccccc1-c1ccc(/C=N/NC(=N)N)o1  Neuropeptide FF receptor 2 (Homo sapiens, UniProt Q9Y5X5)           100
5   N=C(N)N/N=C/c1ccc(-c2ccccc2C(F)(F)F)o1  Neuropeptide FF receptor 2 (Homo sapiens, UniProt Q9Y5X5)           100
6   N=C(N)N/N=C(\c1ccccc1)c1ccc(Cl)c(Cl)c1  Neuropeptide FF receptor 2 (Homo sapiens, UniProt Q9Y5X5)           794
7      CC(C)c1ccccc1-c1ccc(/C=N/NC(=N)N)o1  Neuropeptide FF receptor 2 (Homo sapiens, UniProt Q9Y5X5)           200
8  Cn1c(/C=N/NC(=N)N)ccc1-c1ccccc1C(F)(F)F  Neuropeptide FF receptor 2 (Homo sapiens, UniProt Q9Y5X5)           126

###

The compounds listed here are annotated with their Efficacy.
Molecular target: Neuropeptide FF receptor 2 (Homo sapiens, UniProt Q9Y5X5)
Test: Agonist activity at human NPFF2 receptor expressed in cells assessed as beta-galactosidase levels at […] after 5 days
Assay type: functional, cell-based
Measured attribute: Efficacy (%)

>>> print(df.to_string())
                               smiles_text                               system_name  result_value
0      CC(C)c1ccccc1-c1ccc(/C=N/NC(=N)N)o1  Neuropeptide FF receptor 2 (Homo sapiens, UniProt Q9Y5X5)            70
1             N=C(N)N/N=C/c1ccc(Cl)c(Cl)c1  Neuropeptide FF receptor 2 (Homo sapiens, UniProt Q9Y5X5)            68
2  Cn1c(/C=N/NC(=N)N)ccc1-c1ccccc1C(F)(F)F  Neuropeptide FF receptor 2 (Homo sapiens, UniProt Q9Y5X5)            72

Values were extracted from ChEMBL document CHEMBL1154595.
